Sourced from patent US10239849B2

target: glutathione-S-transferase (GST) tagged LXRbeta LBD (ligand binding domain) (Homo sapiens, UniProt P55055); construct: purchased Invitrogen pv4658.pps; assay: LanthaScreen TR-FRET Liver X Receptor Coactivator Assay, LXR beta-LBD; format: biochemical; conditions: efficacy in relation to reference dual agonist T1317; read-out: LXR beta activity at max dose (%) (Emax)
Sequence (P55055 222-460 limits assumed): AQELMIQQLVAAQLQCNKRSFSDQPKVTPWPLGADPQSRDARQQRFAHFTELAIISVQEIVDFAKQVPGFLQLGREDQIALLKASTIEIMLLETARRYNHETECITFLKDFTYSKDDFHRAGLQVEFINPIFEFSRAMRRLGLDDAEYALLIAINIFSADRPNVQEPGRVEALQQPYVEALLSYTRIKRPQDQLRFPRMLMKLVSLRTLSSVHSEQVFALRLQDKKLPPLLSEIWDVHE
MEASUREMENT TYPE: Emax (%)
I only need the number, in %, no unit after it.

>  <SMILES RECORD>
CN(C)C(=O)c1ccc(-c2cnc(N3CCN(C(=O)[C@](C)(O)c4ccccc4)CC3)c(C#N)c2)cc1Cl

>  <MEASUREMENT TYPE>
Emax

>  <UNITS LABEL>
%

>  <EXPERIMENTAL RESULT>
77

$$$$
>  <SMILES RECORD>
CN(C)C(=O)c1ccc(-c2cnc(N3CCN(C(=O)C4(c5ccc(Cl)cc5Cl)CC4)CC3)c(C#N)c2)cc1Cl

>  <MEASUREMENT TYPE>
Emax

>  <UNITS LABEL>
%

>  <EXPERIMENTAL RESULT>
88

$$$$
>  <SMILES RECORD>
CN(C)C(=O)c1ccc(-c2cnc(N3CCN(C(=O)C45CC(C4)C5)CC3)c(C#N)c2)cc1Cl

>  <MEASUREMENT TYPE>
Emax

>  <UNITS LABEL>
%

>  <EXPERIMENTAL RESULT>
79

$$$$

Proceed to the following item.
q: I'd like to know its Emax. The compound in question is CN(Cc1cnn(C)c1)C(=O)c1ccc(-c2cnc(N3CCN(C(=O)OC(C)(C)C)CC3)c(C#N)c2)cc1Cl
a: 65
